Reported EC50 values follow for various compounds
test system: 4D5Flu triple mutant (VLF98G/VHV37A/VHW110G); experiment: Fluorescein fluorescence quenching, effector (JK43/analog) rescue of triple mutant; type: biochemical; settings: effector titration; 500 nM triple mutant, 10 nM fluorescein, 1% DMSO
Reply numerically in µM, unit not repeated.

- compound: "c1ccc(COc2ccc3cc[nH]c3c2)cc1 [JK25, 6-phenylmethoxy-1H-indole]"
  EC50 (µM): 25

Please look at the following compound next.
EC50 of c1ccc(COc2ccc3cn[nH]c3c2)cc1 [JK43, 6-phenylmethoxy-1H-indazole] on 4D5Flu triple mutant (VLF98G/VHV37A/VHW110G)? 16
